system: MDR1 (P-gp); assay: in vitro; conditions: dog, MDCK-MDR1
Description: Efflux ratio of permeability from basolateral to apical side over apical to basolateral side in MDCK-MDR1 cells
observable: efflux ratio

I. Cc1c2c(n3c1CCOc1cc(C(N)=O)ccc1-3)CC(C)(C)CC2=O
II. Cc1c2c(n3c1CCN(CC(C)C)c1cc(C(N)=O)c(Cl)cc1-3)CC(C)(C)CC2=O
Prompt: Lower value of efflux ratio belongs to which: I or II ? Please respond with the label that marks your chosen entry.
Response: I
(I: 6.2, II: 12.4)

---

Measured Ki (Heat shock protein HSP 90-alpha (Homo sapiens, UniProt P07900))
observable: Ki (nM)

>  <molSmiles>
C#CCN1CCc2c(C)c3c(n2-c2cc(Cl)c(C(N)=O)cc21)CC(C)(C)CC3=O

>  <resultNumber>
54

$$$$

a. CCCCCN1CCc2c(C)c3c(n2-c2cc(Cl)c(C(N)=O)cc21)CC(C)(C)CC3=O
b. Cc1c2c(n3c1CCN(CCC(C)C)c1cc(C(N)=O)c(Cl)cc1-3)CC(C)(C)CC2=O
c. Cc1c2c(n3c1CCN(Cc1ccoc1)c1cc(C(N)=O)c(Cl)cc1-3)CC(C)(C)CC2=O
d. C#CCCCN1CCc2c(C)c3c(n2-c2cc(Cl)c(C(N)=O)cc21)CC(C)(C)CC3=O
Prompt: Hi! Can you put these in order of Ki, lowest number first? Give the order by naming the labels one after another as requested.
Response: c, b, a, d
(c: 41 nM, b: 86 nM, a: 190 nM, d: 370 nM)

---

test: Permeability across apical to basolateral side in MDCK-MDR1 cells; assay type: ADME, cell-based, Canis lupus familiaris; settings: dog, read-out: permeability
observable: Papp A→B (×10⁻⁶ cm/s)

1. Cc1c2c(n3c1CCOc1cc(C(N)=O)ccc1-3)CC(C)(C)CC2=O
2. Cc1c2c(n3c1CCN(CC(C)C)c1cc(C(N)=O)c(Cl)cc1-3)CC(C)(C)CC2=O
Prompt: Out of 1 and 2 , name the one with the higher Papp A→B. Please respond with the label that marks your chosen entry.
Response: 2
